This collection of values is drawn from patent US20220403001A1.

assay: Plasma PK of Tadalafil and Vardenafil after a single oral dose (LC/MS/MS); assay type: in vivo, mice; settings: mouse, NSG mice, single oral dose 10 mg/kg, 8 hours post dose, read-out: Plasma levels
attribute_measured: concentration at 8 h (µM)
Numbers only, in µM.

Briefly, concentration at 8 h measured for CN1CC(=O)N2[C@H](c3ccc4c(c3)OCO4)c3[nH]c4ccccc4c3C[C@@H]2C1=O : 0.9

###

assay: Plasma PK of Tadalafil and Vardenafil after a single oral dose (LC/MS/MS); assay type: in vivo, mice; details: mouse, NSG mice, single oral dose 30 mg/kg, 8 hours post dose, read-out: Plasma levels
attribute_measured: concentration at 8 h (µM)
Answers are plain numbers, in µM.

For this compound ( CN1CC(=O)N2[C@H](c3ccc4c(c3)OCO4)c3[nH]c4ccccc4c3C[C@@H]2C1=O [Tadalafil] ), measured concentration at 8 h is 4.4
